# assay.explanation: in vivo
# condition.summary: female, ICR, mouse, po, 5 mg/kg, t1/2, lung, 5 mg/kg oral, calculated 2 - 12h
result.type: half-life (h)
Report only the number, with the unit h understood.

Req: Report half-life for O=C1CCc2c(OC[C@]3(O)CCN(c4c(F)cc(Cl)cc4F)C[C@H]3O)ccc(F)c2N1 [OPC-167832] please.
Resp: 2.1

----------
# assay.explanation: in vivo
# condition.summary: female, ICR, mouse, po, 10 mg/kg
result.type: AUC(0-t) (ng·h/mL)
Report only the number, with the unit ng·h/mL understood.

Req: Report AUC(0-t) for `O=C1CCc2c(OC[C@]3(O)CCN(c4c(F)cc(Cl)cc4F)C[C@H]3O)ccc(F)c2N1` please.
Resp: 3780
